Recorded measurements of Kd, one per entry
# Test target: Tyrosine-protein kinase ABL1 (Homo sapiens)
# Sequence (P00519 whole entry): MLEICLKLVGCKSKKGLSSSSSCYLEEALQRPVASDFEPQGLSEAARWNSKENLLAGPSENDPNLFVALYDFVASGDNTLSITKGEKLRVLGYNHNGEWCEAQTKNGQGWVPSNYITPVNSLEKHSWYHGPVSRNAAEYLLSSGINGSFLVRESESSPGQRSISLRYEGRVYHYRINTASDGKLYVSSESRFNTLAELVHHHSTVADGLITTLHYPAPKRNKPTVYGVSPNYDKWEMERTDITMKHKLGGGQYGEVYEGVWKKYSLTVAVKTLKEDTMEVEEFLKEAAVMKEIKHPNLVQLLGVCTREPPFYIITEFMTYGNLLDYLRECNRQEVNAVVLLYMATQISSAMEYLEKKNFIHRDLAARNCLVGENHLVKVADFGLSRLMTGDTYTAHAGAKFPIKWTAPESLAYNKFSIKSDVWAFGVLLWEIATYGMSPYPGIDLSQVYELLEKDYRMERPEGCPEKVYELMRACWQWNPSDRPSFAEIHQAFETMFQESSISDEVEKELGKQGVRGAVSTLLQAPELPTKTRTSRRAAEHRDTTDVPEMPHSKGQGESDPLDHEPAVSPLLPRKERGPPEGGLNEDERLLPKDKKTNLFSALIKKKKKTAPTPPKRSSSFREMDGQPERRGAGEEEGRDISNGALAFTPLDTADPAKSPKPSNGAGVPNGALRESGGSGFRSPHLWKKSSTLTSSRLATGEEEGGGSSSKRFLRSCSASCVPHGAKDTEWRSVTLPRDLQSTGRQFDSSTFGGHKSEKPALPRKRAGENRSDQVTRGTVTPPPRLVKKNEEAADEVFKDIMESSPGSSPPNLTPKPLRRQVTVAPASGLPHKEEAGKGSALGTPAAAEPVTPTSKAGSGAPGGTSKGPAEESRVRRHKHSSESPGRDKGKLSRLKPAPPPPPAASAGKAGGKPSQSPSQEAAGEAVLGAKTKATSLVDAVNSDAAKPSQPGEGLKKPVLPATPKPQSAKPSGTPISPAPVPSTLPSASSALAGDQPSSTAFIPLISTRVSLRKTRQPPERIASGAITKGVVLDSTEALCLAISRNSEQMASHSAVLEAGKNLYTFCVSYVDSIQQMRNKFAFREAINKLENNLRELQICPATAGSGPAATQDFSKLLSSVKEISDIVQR
# Assay comment: Binding affinity to phosphorylated ABL1 (unknown origin) after 1 hr
API: value field is a number in µM; no unit string.

O=C(Nc1ccc(Oc2ncnc3nc[nH]c23)c(F)c1)c1cccn(-c2ccc(F)cc2)c1=O | 40

Here is the next item to consider.
Query string: Query (compound): O=C(Nc1ccc(Oc2ncnc3[nH]cnc23)c(F)c1)c1cccn(-c2cccc(F)c2)c1=O ; field requested: Kd
Result string: 3.3

---

# Test target: Tyrosine-protein kinase receptor UFO (Homo sapiens, UniProt P30530)
# Sequence (P30530 whole entry): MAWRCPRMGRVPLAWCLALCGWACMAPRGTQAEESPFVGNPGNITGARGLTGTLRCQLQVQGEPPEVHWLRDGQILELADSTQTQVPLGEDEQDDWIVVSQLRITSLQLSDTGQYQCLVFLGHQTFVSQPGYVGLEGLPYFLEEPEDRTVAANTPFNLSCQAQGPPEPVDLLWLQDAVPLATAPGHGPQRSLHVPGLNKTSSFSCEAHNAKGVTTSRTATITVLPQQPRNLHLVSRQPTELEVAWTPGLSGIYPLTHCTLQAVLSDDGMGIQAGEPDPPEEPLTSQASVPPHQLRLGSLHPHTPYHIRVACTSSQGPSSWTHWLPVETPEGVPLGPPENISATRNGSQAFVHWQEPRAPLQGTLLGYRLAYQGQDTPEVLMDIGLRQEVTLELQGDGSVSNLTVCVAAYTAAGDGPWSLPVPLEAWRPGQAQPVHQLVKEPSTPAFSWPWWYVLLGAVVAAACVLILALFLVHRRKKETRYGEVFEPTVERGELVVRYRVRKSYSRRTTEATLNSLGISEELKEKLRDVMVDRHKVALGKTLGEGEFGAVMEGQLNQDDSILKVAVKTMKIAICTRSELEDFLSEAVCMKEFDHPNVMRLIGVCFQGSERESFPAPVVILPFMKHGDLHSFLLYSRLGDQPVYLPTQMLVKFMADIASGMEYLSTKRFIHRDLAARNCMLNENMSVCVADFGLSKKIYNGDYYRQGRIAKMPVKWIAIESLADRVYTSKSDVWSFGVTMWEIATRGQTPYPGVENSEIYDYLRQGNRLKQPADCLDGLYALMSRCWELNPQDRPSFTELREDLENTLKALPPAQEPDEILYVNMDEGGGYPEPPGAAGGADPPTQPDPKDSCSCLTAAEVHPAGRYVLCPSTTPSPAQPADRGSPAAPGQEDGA
Result type: Kd (nM)
API: value field is a number in nM; no unit string.

Query string: Lookup: Kd / Tyrosine-protein kinase receptor UFO (Homo sapiens, UniProt P30530) / O=C(Nc1ccc(Oc2ncnc3nc[nH]c23)c(F)c1)c1cccn(-c2ccc(F)cc2)c1=O
Result string: 39

---

# Test target: Hepatocyte growth factor receptor (Homo sapiens)
# Sequence (P08581 whole entry): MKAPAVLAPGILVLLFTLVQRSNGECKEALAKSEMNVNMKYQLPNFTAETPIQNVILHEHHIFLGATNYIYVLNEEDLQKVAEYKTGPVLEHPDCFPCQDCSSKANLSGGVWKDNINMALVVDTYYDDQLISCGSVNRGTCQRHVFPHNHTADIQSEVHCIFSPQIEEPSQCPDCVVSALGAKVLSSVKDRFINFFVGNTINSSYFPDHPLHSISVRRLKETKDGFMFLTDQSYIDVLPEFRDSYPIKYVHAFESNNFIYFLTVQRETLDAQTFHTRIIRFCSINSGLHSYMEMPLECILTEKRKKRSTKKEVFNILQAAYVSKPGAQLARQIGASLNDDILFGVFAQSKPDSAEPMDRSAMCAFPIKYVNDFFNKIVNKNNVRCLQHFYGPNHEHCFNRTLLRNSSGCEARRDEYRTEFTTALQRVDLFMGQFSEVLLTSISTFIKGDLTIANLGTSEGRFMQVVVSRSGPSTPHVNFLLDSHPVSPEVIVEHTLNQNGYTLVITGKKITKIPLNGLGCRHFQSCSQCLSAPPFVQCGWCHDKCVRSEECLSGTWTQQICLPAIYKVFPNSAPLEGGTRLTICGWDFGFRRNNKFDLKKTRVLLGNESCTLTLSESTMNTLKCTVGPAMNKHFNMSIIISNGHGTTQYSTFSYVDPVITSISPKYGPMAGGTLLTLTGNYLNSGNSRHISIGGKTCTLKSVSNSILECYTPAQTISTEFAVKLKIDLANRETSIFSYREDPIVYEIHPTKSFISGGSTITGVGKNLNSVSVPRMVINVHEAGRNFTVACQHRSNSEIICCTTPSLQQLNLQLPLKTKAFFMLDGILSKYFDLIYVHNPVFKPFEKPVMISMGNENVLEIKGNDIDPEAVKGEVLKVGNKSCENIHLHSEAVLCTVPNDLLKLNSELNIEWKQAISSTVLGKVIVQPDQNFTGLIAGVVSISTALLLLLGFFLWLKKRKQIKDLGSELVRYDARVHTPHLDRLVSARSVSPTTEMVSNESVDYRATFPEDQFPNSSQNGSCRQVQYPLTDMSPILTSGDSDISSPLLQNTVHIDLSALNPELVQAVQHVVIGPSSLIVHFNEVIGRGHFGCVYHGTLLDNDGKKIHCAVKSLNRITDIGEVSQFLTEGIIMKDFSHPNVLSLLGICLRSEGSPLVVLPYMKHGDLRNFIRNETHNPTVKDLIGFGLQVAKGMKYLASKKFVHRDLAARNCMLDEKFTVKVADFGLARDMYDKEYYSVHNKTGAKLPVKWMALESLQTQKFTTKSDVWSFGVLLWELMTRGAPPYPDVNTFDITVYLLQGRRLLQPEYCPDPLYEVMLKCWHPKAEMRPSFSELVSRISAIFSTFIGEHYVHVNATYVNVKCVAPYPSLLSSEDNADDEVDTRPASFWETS
Result type: pKd
Reminder that pKd is minus the log10 of a molar concentration.

Query string: Lookup: pKd / Hepatocyte growth factor receptor (Homo sapiens) / O=C(Nc1ccc(Oc2ncnc3nc[nH]c23)c(F)c1)c1cccn(-c2ccc(C(F)(F)F)cc2)c1=O
Result string: 6.82

---

# Test target: Tyrosine-protein kinase receptor TYRO3 (Homo sapiens, UniProt Q06418)
# Sequence (Q06418 whole entry): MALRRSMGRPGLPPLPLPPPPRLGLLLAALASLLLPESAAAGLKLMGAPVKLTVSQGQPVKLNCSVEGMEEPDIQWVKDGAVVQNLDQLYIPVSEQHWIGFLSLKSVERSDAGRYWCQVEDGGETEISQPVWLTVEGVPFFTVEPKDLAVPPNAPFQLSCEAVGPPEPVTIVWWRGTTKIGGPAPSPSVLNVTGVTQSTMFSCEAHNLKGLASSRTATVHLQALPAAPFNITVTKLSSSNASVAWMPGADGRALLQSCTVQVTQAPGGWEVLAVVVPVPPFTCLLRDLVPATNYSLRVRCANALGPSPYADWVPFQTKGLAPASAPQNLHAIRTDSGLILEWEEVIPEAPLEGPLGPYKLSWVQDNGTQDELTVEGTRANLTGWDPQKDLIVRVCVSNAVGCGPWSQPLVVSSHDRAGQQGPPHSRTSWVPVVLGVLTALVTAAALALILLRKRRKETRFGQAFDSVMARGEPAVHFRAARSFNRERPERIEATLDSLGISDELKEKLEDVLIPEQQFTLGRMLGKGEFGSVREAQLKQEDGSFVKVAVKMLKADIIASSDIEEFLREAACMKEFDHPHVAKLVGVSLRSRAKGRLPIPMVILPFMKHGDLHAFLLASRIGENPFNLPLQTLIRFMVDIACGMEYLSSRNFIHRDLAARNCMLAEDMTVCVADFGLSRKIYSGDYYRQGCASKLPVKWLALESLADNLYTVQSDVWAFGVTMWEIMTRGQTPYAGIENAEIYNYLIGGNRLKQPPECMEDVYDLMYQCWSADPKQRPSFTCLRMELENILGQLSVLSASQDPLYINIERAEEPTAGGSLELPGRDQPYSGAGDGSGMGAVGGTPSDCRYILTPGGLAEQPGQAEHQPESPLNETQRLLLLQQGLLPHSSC
Result type: pKd
Reminder that pKd is minus the log10 of a molar concentration.

Query string: Query (compound): O=C(Nc1ccc(Oc2ncnc3[nH]cnc23)c(F)c1)c1cccn(-c2cccc(F)c2)c1=O ; field requested: pKd
Result string: 6.05

Where do these numbers come from? They come from ChEMBL document CHEMBL2346606.
